- Test system: 786-0
- testDetails: NCI tumour cell line growth inhibition, 48 h
Activity calls are given as the source filed them. No stated cut-off is given here; in the data, active = GI50 up to about 1.1 µM and inactive = higher.
Outcomes: 1.0 for active, 0.0 for inactive

molecule	studyTarget	assignedLabel
CC1=NN(C(=O)c2ccncc2)C(=O)C1	786-0	0.0
O=C1C2C3C=C4c5ccccc5N(c5ccccc5)C4([C@@H]2C(=O)N1c1ccc(F)cc1)[C@H]1C(=O)N(c2ccc(F)cc2)C(=O)[C@@H]31 (some centres undefined)	786-0	0.0
CC(C#N)Nc1ccc(Oc2ccc(C(C)(C)c3ccc(Oc4ccc(NC(C)C#N)cc4)cc3)cc2)cc1 (centres undefined)	786-0	0.0
O=c1[nH]c(=O)n([C@H]2C[C@H](O)[C@@H](CO)O2)cc1Br	786-0	0.0
CN(CCNCc1cn(C)c2c1ccc1ccccc12)CCNCc1cn(C)c2c1ccc1ccccc12	786-0	1.0
OC(c1cccnc1)C(F)(F)c1nc2ccccc2o1 (centres undefined)	786-0	0.0
Cn1cnc([N+](=O)[O-])c1Sc1nc2cccnc2[nH]1	786-0	0.0
O=C1C(c2cnc3ccccc3n2)=C(O)c2ccccc21	786-0	0.0
C=CCC1([C@H](C)[C@@H](OC(C)=O)c2cc(OC)c(OC)c(OC)c2)C[C@@H](OC)CCC1=O (some centres undefined)	786-0	0.0

====

- Tested on: SK-MEL-5
- testDetails: NCI tumour cell line growth inhibition, 48 h
Calls of active or inactive are those of the source. No stated cut-off is given here; in the data, active = GI50 up to about 1.1 µM and inactive = higher.
readoutLabel: GI50

molecule	measValue
O=C(O)CSc1ncccc1[N+](=O)[O-]	> 100 µM (inactive)
CCOC(=O)C(N)CSC(=O)NC (stereo not given)	116 µM (inactive)
CCCCCCCCCC(=O)Oc1cccc2onc(C)c12	> 100 µM (inactive)
COc1ccccc1C1=C2C(=O)N(C)C(c3ccccc3OC)=C2C(=O)N1C	> 100 µM (inactive)
Oc1ccccc1-c1nn2c(CCCCCCCCc3nnc4sc(-c5ccccc5O)nn34)nnc2s1	18.3 µM (inactive)
CCOC(=O)c1ccc(N[C@@H]2c3cc4c(cc3C(c3cc(OC)c(O)c(OC)c3)[C@H]3C(=O)OCC32)OCO4)cc1 (stereo not given in full)	0.505 µM (active)
CCSC1(SCC)CCN(/C=N/C(C)(C)C)C1	> 100 µM (inactive)
O=C(CCc1ccccc1CO)NCCc1ccccc1	> 100 µM (inactive)
CC1(C)CC2CC(CC(C)(C)C2=O)C1=O	> 100 µM (inactive)
O=c1[nH]c2nc3ccccc3c(=O)n2/c1=C/c1cccs1	> 100 µM (inactive)

====

- Tested on: SN12C
- testDetails: NCI tumour cell line growth inhibition, 48 h
Activity calls are given as the source filed them. Rule as the data show it: active = GI50 up to about 1.1 µM and inactive = higher.
Outcomes: true (active), false (inactive)

compound	assignedLabel
OC1(c2ccccc2)c2ccccc2N=C2NCCN21 (stereo not given)	false
O=C1C(C(O)(C(F)(F)F)C(F)(F)F)CCC1C(O)(C(F)(F)F)C(F)(F)F (stereo not given)	true
O=C(/C=C/c1ccc(O)cc1)c1cc(O)cc(O)c1	false
COc1ccc(C(=O)/C=C/c2ccc(OCC#N)cc2)cc1	false
CC(NC(=O)c1ccc(Cl)c(Cl)c1)c1ccc(-c2ccccc2)cc1 (stereo not given)	false

====

- System: PC-3
- testDetails: NCI tumour cell line growth inhibition, 48 h
Calls of active or inactive are those of the source. No stated cut-off is given here; in the data, active = GI50 up to about 1.1 µM and inactive = higher.
Outcomes: label 1 = active, label 0 = inactive

compound	assignedLabel
COc1cccc(/C=C2\CCCc3ccccc3C2=O)c1	label 0
O=C1c2c(Cl)c(Cl)c(Cl)c(Cl)c2C(=O)N1CCN(c1c(Cl)ssc1=O)c1c(Cl)ssc1=O	label 0
CCCc1ccc(OCC(=O)N/N=C/c2c(-c3ccccc3)[nH]c3ccccc23)cc1	label 0
Nc1nc(N)c2ncn(-c3ccc(Cl)c(Cl)c3)c2n1	label 0
NC1=NN(c2ccccc2)C2(O)c3ccncc3C3=NN(c4ccccc4)C(=O)C132 (stereo unspecified)	label 0
Cc1ccnc2nc(-c3cccc4ccccc34)cc(O)c12	label 1
C[N+](C)(C)c1nc(N)nc2c1ncn2C1OC(CO)C(O)C1O (stereo unspecified)	label 0
O=C(NNC(=S)Nc1ccc(Cl)cc1)C12CC3CC(CC(C3)C1)C2	label 0
C[C@]12CC[C@H]3[C@@H](CC=C4C[C@@H](O)CC[C@@]43C)[C@@H]1CC[C@@H]2N(CCO)CCO	label 0
O=c1[nH]c2nc3ccccc3c(=O)n2/c1=C/c1cccs1	label 0
Clc1ccc(-c2nc3cc(C45CC6CC(CC(C6)C4)C5)ccc3[nH]2)cc1	label 0
CC(C)(C)NCC(O)COc1cccc2[nH]c(C#N)cc12 (stereo unspecified) [CYANOPINDOLOL]	label 0
CC(=O)OCC(OC(C)=O)C1C[C@H]2O[C@@H]3[C@H](C[C@H]2O1)O[C@@]1(C[C@@H]3C)C[C@H](C)[C@@H]2O[C@]3(C[C@@H]2O1)C[C@H]1O[C@H]2[C@H](C)[C@H]4OC(=O)C[C@H]5CC[C@@H]6OC7[C@H]8O[C@]9(CC[C@H]%10CC(=O)[C@H](CC[C@H]%11C[C@@H](C)C(=O)C(C[C@@H]4O[C@H]2C[C@H]1O3)O%11)O%10)CC8O[C@@H]7[C@@H](O9)[C@H]6O5 (stereo partly specified)	label 1
COC(=O)C1=C(C)NC2(O)C=CC(=O)C3C(=O)N(c4ccccc4)C(=O)C132 (stereo unspecified)	label 0
COc1cc([C@@H]2c3cc4c(cc3[C@@H](NCCNCCO)[C@H]3COC(=O)[C@H]23)OCO4)cc(OC)c1O	label 0
Cc1cc(S(=O)(=O)O)ccc1/N=N/c1c(O)ccc2ccccc12	label 0
O=C(/C=C/c1ccc(O)cc1)c1cc(O)cc(O)c1	label 0
CCOC(=O)C(C)(C)Oc1ccc(Cl)cc1 [CLOFIBRATE]	label 0
CC(C)(C)[Si](C)(C)OCC#C[C@@]1(O)CCCCC1CC(Sc1ccccc1)Sc1ccccc1 (stereo partly specified)	label 0
NCCNC(=S)S	label 0
Cn1c(=O)c2c(nc3n2CCC(=O)N3CCCCl)n(C)c1=O	label 0
